Examples of compounds with documented pKi follow.
# measured.on: Transient receptor potential cation channel subfamily V member 1 (Rattus norvegicus, UniProt O35433)
# Sequence (O35433 whole entry): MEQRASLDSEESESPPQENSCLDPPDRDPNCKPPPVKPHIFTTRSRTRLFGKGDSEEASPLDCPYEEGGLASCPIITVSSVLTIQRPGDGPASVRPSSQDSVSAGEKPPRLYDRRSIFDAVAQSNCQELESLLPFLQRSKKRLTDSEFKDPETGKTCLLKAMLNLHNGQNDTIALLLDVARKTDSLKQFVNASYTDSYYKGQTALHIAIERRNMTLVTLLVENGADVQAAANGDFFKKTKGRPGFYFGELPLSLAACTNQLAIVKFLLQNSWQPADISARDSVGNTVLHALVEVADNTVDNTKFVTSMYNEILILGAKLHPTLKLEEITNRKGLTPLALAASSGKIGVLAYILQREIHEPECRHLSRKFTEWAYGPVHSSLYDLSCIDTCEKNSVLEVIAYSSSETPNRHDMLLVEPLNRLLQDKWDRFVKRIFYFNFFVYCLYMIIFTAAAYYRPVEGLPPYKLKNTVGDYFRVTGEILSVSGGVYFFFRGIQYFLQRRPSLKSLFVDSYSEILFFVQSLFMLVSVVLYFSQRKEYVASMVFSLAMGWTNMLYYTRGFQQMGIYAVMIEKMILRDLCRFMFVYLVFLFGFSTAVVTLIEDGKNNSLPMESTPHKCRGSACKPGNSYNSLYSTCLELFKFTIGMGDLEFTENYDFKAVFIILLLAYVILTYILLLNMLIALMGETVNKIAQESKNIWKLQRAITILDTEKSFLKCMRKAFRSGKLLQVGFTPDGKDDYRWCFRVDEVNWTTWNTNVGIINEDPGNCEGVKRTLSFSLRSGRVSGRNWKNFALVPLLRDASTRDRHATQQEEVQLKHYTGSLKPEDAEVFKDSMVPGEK
# test.protocol: Antagonist activity at rat TRPV1 receptor expressed in CHO cells by Ca2+ uptake assay
pKi: −log10 of the molar value.
measured.parameter: pKi

| compound | recorded.measurement |
| --- | --- |
| CC(NC(=S)NCc1ccc(C(C)(C)C)cc1)c1ccc(NS(C)(=O)=O)cc1 (stereo not given) | 7.83 |
| C[C@@H](NC(=S)NCc1ccc(C(C)(C)C)cc1)c1ccc(NS(C)(=O)=O)c(F)c1 | 7.43 |
| CN(C)CCCN1c2ccccc2Sc2ccc(Cl)cc21 [CHLORPROMAZINE] | 6.28 |
| CC(C)(C)c1ccc(CNC(=S)NC(C)(C)c2ccc(NS(C)(=O)=O)cc2)cc1 | 5.74 |
| C[C@H](NC(=S)NCc1ccc(C(C)(C)C)cc1)c1ccc(NS(C)(=O)=O)c(F)c1 | 5.57 |
